- System: UACC-257
- ASSAY_NOTES: NCI tumour cell line growth inhibition, 48 h
The source made the active and inactive calls. No stated cut-off is given here; in the data, active = GI50 up to about 1.1 µM and inactive = higher.
Possible outcomes: active, inactive

[
  {
    "MOLECULE": "CC12CCC3c4ccc(O)cc4CCC3C1C/C(=N\\O)C2O (stereo not given)",
    "LABEL_VALUE": "inactive"
  },
  {
    "MOLECULE": "COc1nc(O)nc2c1C(c1ccc([N+](=O)[O-])cc1)c1c(OC)nc(O)nc1O2",
    "LABEL_VALUE": "inactive"
  },
  {
    "MOLECULE": "C1CSCCSCCSCCSC1",
    "LABEL_VALUE": "inactive"
  },
  {
    "MOLECULE": "CCCC(=O)Nc1cc(/C=C/C(=O)N2CC(CCl)c3ccc(N)cc32)n(C)c1 (stereo not given)",
    "LABEL_VALUE": "active"
  },
  {
    "MOLECULE": "CCCCCCCCCCCCCC(=O)O[C@H]1CC[C@H](NC(=O)[C@H](OC)[C@H](O)[C@@H](O)[C@H](O)/C=C/C(C)C)C(=O)N(C)C1 [BENGAMIDE B]",
    "LABEL_VALUE": "active"
  },
  {
    "MOLECULE": "COc1cc(OC)cc(Oc2nc3ccccc3nc2C(=O)O)c1",
    "LABEL_VALUE": "inactive"
  },
  {
    "MOLECULE": "N#Cc1c(NCCc2ccc(F)cc2)c2ccccc2n2c1nc1ccccc12",
    "LABEL_VALUE": "inactive"
  },
  {
    "MOLECULE": "COc1ccc(CN2CC(C)(C)C2=O)c(OC)c1",
    "LABEL_VALUE": "inactive"
  },
  {
    "MOLECULE": "Cc1nc2ccc(F)cc2c(Cl)c1CCCl",
    "LABEL_VALUE": "inactive"
  },
  {
    "MOLECULE": "CC(Br)C(=O)NN1C2=C(Nc3ccccc31)c1cccc3cccc2c13 (stereo not given)",
    "LABEL_VALUE": "inactive"
  }
]
